The following compounds are listed with their measured melting point values.

Given item "O=C(CCl)Nc1ccc2c(c1NC(=O)Cc1ccc(F)cc1)C(=O)c1ccccc1C2=O" , the value recorded as its melting point is 213 to 214 °C

Given item "O=C(CCl)Nc1ccc2c(c1NC(=O)CSc1ccccc1)C(=O)c1ccccc1C2=O" , the value recorded as its melting point is 161 to 162 °C

Given item "Cc1ccc(C(=O)Nc2c(NC(=O)CN3CCSCC3)ccc3c2C(=O)c2ccccc2C3=O)cc1" , the value recorded as its melting point is 210 to 211 °C

Given item "O=C(CCl)Nc1ccc2c(c1NC(=O)c1ccccc1C(F)(F)F)C(=O)c1ccccc1C2=O" , the value recorded as its melting point is 248 to 250 °C

Given item "O=C(CCl)Nc1ccc2c(c1NC(=O)CCCCl)C(=O)c1ccccc1C2=O" , the value recorded as its melting point is 163 to 164 °C

Given item "O=C(CCl)Nc1ccc2c(c1NC(=O)c1cc(C(F)(F)F)ccc1C(F)(F)F)C(=O)c1ccccc1C2=O" , the value recorded as its melting point is 187 to 188 °C

Given item "Cc1ccc(C(=O)Nc2c(NC(=O)CN3CCN(c4ncccn4)CC3)ccc3c2C(=O)c2ccccc2C3=O)cc1" , the value recorded as its melting point is 267 to 268 °C

Given item "O=C(CCl)Nc1ccc2c(c1NC(=O)c1ccccc1F)C(=O)c1ccccc1C2=O" , the value recorded as its melting point is 245 to 246 °C

###

The following molecules are listed with their measured activity at 100 µM values.
- Test system: hTERT
- ASSAY_PROTOCOL: Secreted alkaline phosphatase (SEAP) assay, PhTERT-SEAP (H1299)
- Type: cell-based
- MEASUREMENT_PARAMETERS: Homo sapiens, NCI-H1299, Conc. 100 μM, 24 hours, read-out: Relative SEAP activity (%) (converted)
State the result as a value with its unit after it.

Answered cases to consult:
Given item "O=C(CCCCl)Nc1ccc2c(c1NC(=O)CCCCl)C(=O)c1ccccc1C2=O" , the value recorded as its activity at 100 µM is 15.2%

Given item "O=C(CCl)Nc1ccc2c(c1NC(=O)Cc1ccc(F)cc1)C(=O)c1ccccc1C2=O" , the value recorded as its activity at 100 µM is 1.75%

// below: activity at 100 µM requested for another molecule
Given item "COc1ccccc1N1CCN(CC(=O)Nc2ccc3c(c2NC(=O)c2ccc(C)cc2)C(=O)c2ccccc2C3=O)CC1" , the value recorded as its activity at 100 µM is 12.2%

###

- ASSAY_PROTOCOL: MTT assay, PhTERT-SEAP (H1299)
- Assay type: cell-based, human
- MEASUREMENT_PARAMETERS: human, H1299 cells carrying the PhTERT-SEAP reporter; Conc. 1 μM; PhTERT-SEAP (H1299); read-out: Relative MTT viability (%)
QUANTITY: viability at 1 μM (%)
Provide only the numeric value, understood in %.

Given item O=C(CCl)Nc1ccc2c(c1NC(=O)c1cccc(C(F)(F)F)c1)C(=O)c1ccccc1C2=O [CC-20] , the value recorded as its viability at 1 μM is 94.7

###

- System: HCT-15
- ASSAY_PROTOCOL: NCI drug screen, HCT-15
- Format: cell-based, human
- MEASUREMENT_PARAMETERS: HCT-15 (Colon Cancer); 1.00E−5 Molar
The following compounds are listed with their measured Growth Percent values.
Provide only the numeric value, understood in %.

Recorded Growth Percent for "O=C(CCl)Nc1ccc2c(c1NC(=O)Cc1ccccc1)C(=O)c1ccccc1C2=O" on HCT-15 was 68.55

Recorded Growth Percent for "Cc1ccc(C(=O)Nc2c(NC(=O)CN3CCN(C)CC3)ccc3c2C(=O)c2ccccc2C3=O)cc1" on HCT-15 was 27.47

Next:
Recorded Growth Percent for "Cc1ccc(C(=O)Nc2ccc3c(c2NC(=O)c2ccc(C)cc2)C(=O)c2ccccc2C3=O)cc1" on HCT-15 was 102.44

Recorded Growth Percent for "Cc1ccc(C(=O)Nc2c(NC(=O)CCl)ccc3c2C(=O)c2ccccc2C3=O)cc1" on HCT-15 was −50.22

Recorded Growth Percent for "Cc1ccc(C(=O)Nc2c(NC(=O)CN3CCCC3)ccc3c2C(=O)c2ccccc2C3=O)cc1" on HCT-15 was 73.22

###

The following compounds are listed with their measured melting point values.

Given item "Cc1ccc(C(=O)Nc2c(NC(=O)CN3CCN(CCO)CC3)ccc3c2C(=O)c2ccccc2C3=O)cc1" , the value recorded as its melting point is 210 to 211 °C

###

The following molecules are listed with their measured activity at 100 µM values.
- Test system: hTERT
- ASSAY_PROTOCOL: Secreted alkaline phosphatase (SEAP) assay, PhTERT-SEAP (H1299)
- Format: cell-based
- MEASUREMENT_PARAMETERS: Homo sapiens, NCI-H1299, Conc. 100 μM, 24 hours, read-out: Relative SEAP activity (%) (converted)
State the result as a value with its unit after it.

Given item "O=C(CCl)Nc1ccc2c(c1NC(=O)c1cccc(C(F)(F)F)c1)C(=O)c1ccccc1C2=O" , the value recorded as its activity at 100 µM is 0.32%

Given item "O=C(CCl)Nc1ccc2c(c1NC(=O)c1ccc(Cl)cc1)C(=O)c1ccccc1C2=O" , the value recorded as its activity at 100 µM is 4.95%

Next:
Given item "O=C(CCl)Nc1ccc2c(c1NC(=O)c1cc(C(F)(F)F)ccc1C(F)(F)F)C(=O)c1ccccc1C2=O" , the value recorded as its activity at 100 µM is 4.11%

Given item "Cc1cc(C(=O)Nc2c(NC(=O)CCl)ccc3c2C(=O)c2ccccc2C3=O)c(C)o1" , the value recorded as its activity at 100 µM is 0.83%

Given item "Cc1ccc(C(=O)Nc2c(NC(=O)CN3CCN(c4ncccn4)CC3)ccc3c2C(=O)c2ccccc2C3=O)cc1" , the value recorded as its activity at 100 µM is 20%

###

- ASSAY_PROTOCOL: MTT assay, PhTERT-SEAP (H1299)
- Format: cell-based, human
- MEASUREMENT_PARAMETERS: human, H1299 cells carrying the PhTERT-SEAP reporter; Conc. 1 μM; PhTERT-SEAP (H1299); read-out: Relative MTT viability (%)
The following molecules are listed with their measured viability at 1 μM values.
Provide only the numeric value, understood in %.

Given item "COc1ccccc1N1CCN(CC(=O)Nc2ccc3c(c2NC(=O)c2ccc(C)cc2)C(=O)c2ccccc2C3=O)CC1" , the value recorded as its viability at 1 μM is 76.4

Given item "O=C(CCl)Nc1ccc2c(c1NC(=O)c1ccccc1)C(=O)c1ccccc1C2=O" , the value recorded as its viability at 1 μM is 101

// below: viability at 1 μM requested for another molecule
Given item "O=C(CCl)Nc1ccc2c(c1NC(=O)C1CCCCC1)C(=O)c1ccccc1C2=O" , the value recorded as its viability at 1 μM is 82.3

###

The following compounds are listed with their measured melting point values.

Answered cases to consult:
Given item O=C(CCl)Nc1ccc2c(c1NC(=O)c1ccc(F)cc1)C(=O)c1ccccc1C2=O [CC-15] , the value recorded as its melting point is 184 to 185 °C

Given item O=C(CCl)Nc1ccc2c(c1NC(=O)c1ccc(Cl)cc1)C(=O)c1ccccc1C2=O [CC-18] , the value recorded as its melting point is 224 to 225 °C

Given item Cc1ccc(C(=O)Nc2c(NC(=O)CN3CCN(c4ccccc4F)CC3)ccc3c2C(=O)c2ccccc2C3=O)cc1 [CC-46] , the value recorded as its melting point is 228 to 229 °C

Given item O=C(CCl)Nc1ccc2c(c1NC(=O)c1ccco1)C(=O)c1ccccc1C2=O [CC-27] , the value recorded as its melting point is 211 to 212 °C

// below: melting point requested for another compound
Given item Cc1ccccc1C(=O)Nc1c(NC(=O)CCl)ccc2c1C(=O)c1ccccc1C2=O [CC-10] , the value recorded as its melting point is 179 to 180 °C
